Record form. Attribute: Average % Total Dose in Urine Samples. Fill in for each entry.
assay comment: Average % total dose in urine samples of dogs (Table II)
Format: in vivo, dog
setup conditions: 10 min post injection, mean, 10 min
Give bare numbers, in % total dose.

>>> recorded_value("O=C(O)C1C[S][Tc-]23(=[O])[S]CC[N]2C(=O)C(=O)[N]13 (single isomer, unassigned) [XXXIA]")
12.52
>>> recorded_value("O=C(O)C1C[S][Tc-]23(=[O])[S]CC[N]2C(=O)C(=O)[N]13 (single isomer, unassigned) [XXXIB]")
31.40
>>> recorded_value("O=C(O)C1C[S][Tc-]23(=[O])[S]CC(=O)[N]2CC(=O)[N]13 (single isomer, unassigned) [XVIA]")
35.32

Q) Would you kindly share the measured Average % Total Dose in Urine Samples for O=C(O)C1C[S][Tc-]23(=[O])[S]CC(=O)[N]2CC(=O)[N]13 (single isomer, unassigned) [XVIB] ?
A) 32.94

###

assay comment: Gamma camera: % total dose in bladder, 99mTc complexes coinjected with 131I-OIH into normal dogs (Tables I, III)
Type: in vivo, dog
setup conditions: Table III; 35 min, average of dogs
measure: % total dose in bladder at 35 minutes, Average 99mTc (± s.d)
Value and unit, in that order.

Solved entries (count: 3):
>>> recorded_value("O=C(O)C1C[S][Tc-]23(=[O])[S]CC(=O)[N]2CC(=O)[N]13 (single isomer, unassigned) [XVIB]")
"66.44 % total dose"
>>> recorded_value("O=C(O)C1C[S][Tc-]23(=[O])[S]CC[N]2C(=O)C(=O)[N]13 (single isomer, unassigned) [XXXIB]")
"62.93 % total dose"
>>> recorded_value("O=C(O)C1C[S][Tc-]23(=[O])[S]CC(=O)[N]2CC(=O)[N]13 (single isomer, unassigned) [XVIA]")
"67.50 % total dose"

Q) Would you kindly share the measured % total dose in bladder at 35 minutes, Average 99mTc (± s.d) for O=C(O)C1C[S][Tc-]23(=[O])[S]CC[N]2C(=O)C(=O)[N]13 (single isomer, unassigned) [XXXIA] ?
A) 35.89 % total dose

###

Record form. Attribute: Average % Total Dose in Urine Samples. Fill in for each entry.
assay comment: Average % total dose in urine samples of dogs (Table II)
Format: in vivo, dog
setup conditions: 20 min post injection, mean, 20 min
Answers are plain numbers, in % total dose.

Solved entries (count: 2):
>>> recorded_value("O=C(O)C1C[S][Tc-]23(=[O])[S]CC(=O)[N]2CC(=O)[N]13 (single isomer, unassigned) [XVIB]")
51.40
>>> recorded_value("O=C(O)C1C[S][Tc-]23(=[O])[S]CC[N]2C(=O)C(=O)[N]13 (single isomer, unassigned) [XXXIB]")
51.00

Provide Average % Total Dose in Urine Samples for all items below, preserving their order.
1. O=C(O)C1C[S][Tc-]23(=[O])[S]CC[N]2C(=O)C(=O)[N]13 (single isomer, unassigned) [XXXIA]
2. O=C(O)C1C[S][Tc-]23(=[O])[S]CC(=O)[N]2CC(=O)[N]13 (single isomer, unassigned) [XVIA]

A)
1. 24.10
2. 57.57

###

Record form. Attribute: Average % Total Dose in Urine Samples. Fill in for each entry.
assay comment: Average % total dose in urine samples of dogs (Table II)
Format: in vivo, dog
setup conditions: 25 min post injection, mean, 25 min
Value and unit, in that order.

Provide Average % Total Dose in Urine Samples for all items below, preserving their order.
1. O=C(O)C1C[S][Tc-]23(=[O])[S]CC(=O)[N]2CC(=O)[N]13 (single isomer, unassigned) [XVIB]
2. O=C(O)C1C[S][Tc-]23(=[O])[S]CC[N]2C(=O)C(=O)[N]13 (single isomer, unassigned) [XXXIB]
3. O=C(O)C1C[S][Tc-]23(=[O])[S]CC[N]2C(=O)C(=O)[N]13 (single isomer, unassigned) [XXXIA]

A)
["56.34 % total dose", "57.23 % total dose", "28.62 % total dose"]

Q) Would you kindly share the measured Average % Total Dose in Urine Samples for O=C(O)C1C[S][Tc-]23(=[O])[S]CC(=O)[N]2CC(=O)[N]13 (single isomer, unassigned) [XVIA] ?
A) 63.25 % total dose
